target: 5-HT1A receptor (Rattus norvegicus, UniProt P19327); test: biochemical; assay type: binding; conditions: rat cerebral cortex; [^3 H]8-OH-DPAT 0.2 nM; 23° C., 30 minutes; mean of 3 to 5 experiments; read-out: pKi (Affinity for the 5-HT1A receptor) (converted)
Sequence (P19327 whole entry): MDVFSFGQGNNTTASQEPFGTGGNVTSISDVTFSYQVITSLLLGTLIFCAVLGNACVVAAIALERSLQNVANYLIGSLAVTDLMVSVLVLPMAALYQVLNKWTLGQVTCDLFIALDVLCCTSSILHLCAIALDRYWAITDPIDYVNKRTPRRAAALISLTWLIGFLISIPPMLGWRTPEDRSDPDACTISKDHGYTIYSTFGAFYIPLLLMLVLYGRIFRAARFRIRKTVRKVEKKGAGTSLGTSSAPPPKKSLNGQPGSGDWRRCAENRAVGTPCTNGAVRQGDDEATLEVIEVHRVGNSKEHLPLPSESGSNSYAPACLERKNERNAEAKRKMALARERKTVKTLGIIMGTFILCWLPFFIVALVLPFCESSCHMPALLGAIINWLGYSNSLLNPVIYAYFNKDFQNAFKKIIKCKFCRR
Where a name gives a salt, the structure may show the parent alone.
valueType: Ki (nM)
# number only, unit nM dropped from output

Cn1c(=O)cnn(CCCCN2CCN(c3cc(Cl)cc(Cl)c3)CC2)c1=O | 0.912
COc1ccccc1N1CCN(CCCCn2ncc(=O)n(C)c2=O)CC1 | 0.132
CN(CCCCn1ncc(=O)n(C)c1=O)CC1COc2ccccc2O1 (centres unmarked) [Compound 15, fumarate] | 2.82

INPUT: // fetch 5-HT1A receptor (Rattus norvegicus, UniProt P19327) Ki for Cn1c(=O)cnn(CCCCN2CCN(c3ccc(Cl)c(Cl)c3)CC2)c1=O
OUTPUT: 2.63

INPUT: Item Cl.Cn1c(=O)cnn(CCCCN2CCN(c3cccc(C(F)(F)F)c3)CC2)c1=O [Compound 3, hydrochloride] with 5-HT1A receptor (Rattus norvegicus, UniProt P19327) - Ki?
OUTPUT: 0.24

INPUT: Tell me reported Ki for Cn1c(=O)cnn(CCCCNCC2COc3ccccc3O2)c1=O (centres unmarked) , tested with 5-HT1A receptor (Rattus norvegicus, UniProt P19327).
OUTPUT: 0.269

INPUT: Param readout= Ki; system= 5-HT1A receptor (Rattus norvegicus, UniProt P19327); entry= Cc1nn(CCCCN2CCN(c3cccc(C(F)(F)F)c3)CC2)c(=O)[nH]c1=O ; returns value.
OUTPUT: 6.46
